Biological target: Nitric oxide synthase 3 (Homo sapiens)
property: Ki

Request body: readout Ki, system Nitric oxide synthase 3 (Homo sapiens), query `C[C@H]1CC(=N)N[C@@H]2[C@H](Cl)[C@@H]21` . Return the value. 0.0186 µM

---

Assay: Clearance in rat
Format: ADME, organism-based
Conditions: in vivo
property: clearance (mL/min/kg)
Field: numeric (mL/min/kg). Do not append units.

Recorded clearance for `COc1ccnc(CCc2nc3ncccc3[nH]2)c1` , please? 36.8

---

Reported values: IC50 for UniProt:P35228, one per item.
Sequence (P35228 whole entry): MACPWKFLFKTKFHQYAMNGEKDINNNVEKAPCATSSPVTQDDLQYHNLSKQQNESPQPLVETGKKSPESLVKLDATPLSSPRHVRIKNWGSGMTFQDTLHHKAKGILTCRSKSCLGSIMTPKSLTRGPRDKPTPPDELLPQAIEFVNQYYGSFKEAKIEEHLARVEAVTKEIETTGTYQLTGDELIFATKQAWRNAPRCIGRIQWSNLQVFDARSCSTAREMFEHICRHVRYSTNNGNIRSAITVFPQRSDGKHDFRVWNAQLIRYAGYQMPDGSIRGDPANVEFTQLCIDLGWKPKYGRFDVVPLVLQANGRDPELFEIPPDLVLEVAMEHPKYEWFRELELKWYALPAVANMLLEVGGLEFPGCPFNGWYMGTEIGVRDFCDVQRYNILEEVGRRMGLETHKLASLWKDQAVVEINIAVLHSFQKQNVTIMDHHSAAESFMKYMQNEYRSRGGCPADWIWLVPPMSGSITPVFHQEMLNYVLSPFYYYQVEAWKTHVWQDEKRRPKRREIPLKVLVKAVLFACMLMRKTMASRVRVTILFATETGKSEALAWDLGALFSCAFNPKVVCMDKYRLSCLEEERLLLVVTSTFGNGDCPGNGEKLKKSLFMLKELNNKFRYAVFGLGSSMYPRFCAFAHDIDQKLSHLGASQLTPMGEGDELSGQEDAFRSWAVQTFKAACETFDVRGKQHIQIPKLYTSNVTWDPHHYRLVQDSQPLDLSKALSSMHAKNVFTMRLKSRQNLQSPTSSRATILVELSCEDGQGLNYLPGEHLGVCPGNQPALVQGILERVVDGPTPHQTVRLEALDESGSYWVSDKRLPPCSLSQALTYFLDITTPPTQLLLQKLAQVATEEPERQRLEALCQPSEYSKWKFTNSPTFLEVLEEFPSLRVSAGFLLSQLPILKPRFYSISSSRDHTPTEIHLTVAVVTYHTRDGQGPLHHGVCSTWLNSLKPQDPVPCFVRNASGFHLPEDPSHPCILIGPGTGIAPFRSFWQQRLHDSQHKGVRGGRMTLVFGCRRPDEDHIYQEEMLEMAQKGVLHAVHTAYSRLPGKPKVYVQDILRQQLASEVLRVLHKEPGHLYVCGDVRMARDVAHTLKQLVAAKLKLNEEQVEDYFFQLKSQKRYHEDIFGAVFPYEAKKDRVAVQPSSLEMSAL
The response must be a number in nM with no trailing unit.

Fill blank: measured IC50 of the molecule `CC(=N)NCCCC[C@H](N)C(=O)O` is ____. 4680

Reported IC50 for `COc1ccnc(CSc2nc3ccccc3[nH]2)c1` : what is it? 10700

Value lookup for IC50; key = `COc1ccnc(CCc2nc3ccc(OC)nc3[nH]2)c1` 380

What does the record list as IC50 for `COc1ccnc(CCc2nc3c(C)cc(C)nc3[nH]2)c1` ? 2290

Returns the measured IC50 for the input molecule. Input: `COc1ccnc(CCc2nc3c(OC)ccnc3[nH]2)c1` 776

Recorded IC50 for `CCCCc1cnc2[nH]c(CCc3cc(OC)ccn3)nc2c1` , please? 55

// lookup IC50 for `COc1ccnc(CSc2nc3cccnc3[nH]2)c1` 115

---

Target: Nitric oxide synthase 1 (Homo sapiens)
Sequence (P29475 whole entry): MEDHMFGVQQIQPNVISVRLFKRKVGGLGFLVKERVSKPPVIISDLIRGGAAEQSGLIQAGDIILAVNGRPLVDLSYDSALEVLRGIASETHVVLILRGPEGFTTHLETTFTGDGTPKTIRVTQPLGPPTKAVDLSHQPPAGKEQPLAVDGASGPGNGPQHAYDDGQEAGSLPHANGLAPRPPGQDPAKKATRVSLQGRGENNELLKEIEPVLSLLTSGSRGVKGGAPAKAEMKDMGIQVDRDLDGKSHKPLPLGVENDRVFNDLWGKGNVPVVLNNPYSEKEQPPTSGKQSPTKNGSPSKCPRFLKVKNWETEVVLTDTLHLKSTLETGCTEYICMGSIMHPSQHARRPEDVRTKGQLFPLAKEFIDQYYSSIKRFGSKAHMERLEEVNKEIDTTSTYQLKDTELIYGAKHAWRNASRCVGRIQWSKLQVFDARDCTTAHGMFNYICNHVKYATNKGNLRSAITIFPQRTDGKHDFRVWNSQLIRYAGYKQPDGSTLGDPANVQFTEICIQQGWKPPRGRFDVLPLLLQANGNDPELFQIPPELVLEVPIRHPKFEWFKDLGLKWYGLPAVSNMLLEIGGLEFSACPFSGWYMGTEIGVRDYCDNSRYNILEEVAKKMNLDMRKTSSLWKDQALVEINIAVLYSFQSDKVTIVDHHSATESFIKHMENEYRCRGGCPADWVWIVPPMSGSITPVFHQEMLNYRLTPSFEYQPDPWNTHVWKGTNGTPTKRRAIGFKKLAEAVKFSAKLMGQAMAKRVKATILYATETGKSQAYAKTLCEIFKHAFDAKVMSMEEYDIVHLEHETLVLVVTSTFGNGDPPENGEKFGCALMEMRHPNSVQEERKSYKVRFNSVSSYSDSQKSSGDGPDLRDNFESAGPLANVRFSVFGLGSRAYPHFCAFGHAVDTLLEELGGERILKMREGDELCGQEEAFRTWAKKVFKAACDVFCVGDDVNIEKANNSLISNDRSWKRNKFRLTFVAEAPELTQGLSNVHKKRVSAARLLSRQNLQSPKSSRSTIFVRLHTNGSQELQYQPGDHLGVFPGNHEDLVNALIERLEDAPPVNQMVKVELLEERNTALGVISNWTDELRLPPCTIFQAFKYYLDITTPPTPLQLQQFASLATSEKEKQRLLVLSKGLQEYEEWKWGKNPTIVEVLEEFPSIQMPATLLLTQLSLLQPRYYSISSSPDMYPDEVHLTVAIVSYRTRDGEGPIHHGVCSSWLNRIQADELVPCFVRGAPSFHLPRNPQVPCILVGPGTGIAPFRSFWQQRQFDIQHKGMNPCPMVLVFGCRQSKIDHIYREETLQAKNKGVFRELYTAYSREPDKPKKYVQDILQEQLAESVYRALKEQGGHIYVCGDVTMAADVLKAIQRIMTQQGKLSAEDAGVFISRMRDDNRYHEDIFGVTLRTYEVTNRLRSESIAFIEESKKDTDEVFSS
Test: Inhibition of human nNOS assessed as inhibition of [3H]L-arginine to [3H]L-citrulline conversion by scintillation counting
Recorded IC50 for the following compounds

>>> test_result("COc1ccnc(CCc2nc3c(OC)ccnc3[nH]2)c1")
"58.9 µM"

Entry under review: `COc1ccnc(CSC)c1` . Reported IC50? 0.447 µM

What does the record list as IC50 for `COc1cnc(CSC)cc1OC` ? > 100 µM

Can you look up the measured IC50 of `CC(=N)NCCCC[C@H](N)C(=O)Nc1nnn[nH]1` for me? > 100 µM

// lookup IC50 for `COc1ccnc(CCc2nc3c(OCCc4ccccc4)ccnc3[nH]2)c1` 13.8 µM

Consider the compound shown here: `COc1ccnc(CCc2nc3cc(Br)cnc3[nH]2)c1` What is its recorded IC50? 8.32 µM

---

Experiment: Cmax in rat
Type: ADME, organism-based
Conditions: in vivo
property: Cmax (ng/mL)
Entry rule: numbers only, all in ng/mL.

Please give the measured Cmax for this molecule: `COc1ccnc(CCc2nc3ncccc3[nH]2)c1` 2240

---

Biological target: Nitric oxide synthase 3 (Homo sapiens, UniProt P29474)
Sequence (P29474 whole entry): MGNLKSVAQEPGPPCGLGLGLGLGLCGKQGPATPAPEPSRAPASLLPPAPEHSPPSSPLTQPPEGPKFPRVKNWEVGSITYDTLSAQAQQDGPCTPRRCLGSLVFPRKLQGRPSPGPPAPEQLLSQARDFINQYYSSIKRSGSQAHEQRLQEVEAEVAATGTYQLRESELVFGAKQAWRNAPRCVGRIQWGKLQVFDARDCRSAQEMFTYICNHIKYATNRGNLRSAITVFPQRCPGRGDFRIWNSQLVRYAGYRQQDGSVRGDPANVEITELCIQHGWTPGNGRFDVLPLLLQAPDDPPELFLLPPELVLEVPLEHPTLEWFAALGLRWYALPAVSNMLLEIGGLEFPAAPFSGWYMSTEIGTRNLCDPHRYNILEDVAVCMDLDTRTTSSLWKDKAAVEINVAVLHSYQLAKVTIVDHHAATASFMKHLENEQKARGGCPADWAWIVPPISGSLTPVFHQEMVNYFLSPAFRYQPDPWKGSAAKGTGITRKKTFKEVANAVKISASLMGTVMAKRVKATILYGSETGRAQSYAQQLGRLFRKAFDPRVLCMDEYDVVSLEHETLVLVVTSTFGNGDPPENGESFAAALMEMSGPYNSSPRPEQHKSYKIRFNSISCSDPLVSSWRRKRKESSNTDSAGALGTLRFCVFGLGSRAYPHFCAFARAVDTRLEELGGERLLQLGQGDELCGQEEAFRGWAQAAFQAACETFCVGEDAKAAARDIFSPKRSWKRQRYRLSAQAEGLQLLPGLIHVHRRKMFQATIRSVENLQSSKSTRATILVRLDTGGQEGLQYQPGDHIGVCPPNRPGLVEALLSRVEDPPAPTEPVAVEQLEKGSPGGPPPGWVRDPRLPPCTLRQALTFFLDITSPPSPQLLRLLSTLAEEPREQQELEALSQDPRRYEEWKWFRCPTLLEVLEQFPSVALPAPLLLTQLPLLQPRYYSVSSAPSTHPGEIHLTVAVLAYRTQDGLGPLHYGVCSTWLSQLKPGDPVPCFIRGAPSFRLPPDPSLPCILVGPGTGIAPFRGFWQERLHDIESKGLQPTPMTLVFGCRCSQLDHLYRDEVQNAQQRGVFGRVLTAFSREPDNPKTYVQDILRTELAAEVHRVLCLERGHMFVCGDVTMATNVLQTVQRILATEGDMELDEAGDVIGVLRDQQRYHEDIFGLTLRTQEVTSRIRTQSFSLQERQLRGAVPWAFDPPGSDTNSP
property: pIC50
# reply with the number alone; pIC50 is -log10 of concentration in mol/L

Before answering, review these 3 worked examples.
>>> test_result("COc1ccnc(CCc2nc3c(C)ccnc3[nH]2)c1")
4.34
>>> test_result("COc1ccnc(CCc2nc3c(OCCc4ccccc4)ccnc3[nH]2)c1")
4.18
>>> test_result("COc1ccnc(CSC)c1")
5.97

Turning now to a further compound:
Which value of pIC50 has been reported for `COc1ccnc(CCc2nc3cc(Br)cnc3[nH]2)c1` in the records? 4.06
